Taken from the Immune Epitope Database (IEDB).

Molecular target: HLA-A*23:01
Assay: IEDB peptide-MHC binding, purified MHC/competitive/radioactivity; filed as Kd, often an IC50 or EC50 that approximates it; bounds were set here for any values at or beyond the usual limits of such assays
Settings: source organism: Mammarenavirus brazilense
Item-by-item account of Kd
# unit: nM | format: bare number

Worked set:
Inquiry: If you can, please state the reported Kd value of QMISSIDRFF .
Reply text: 758

Inquiry: If you can, please state the reported Kd value of RYNLDPDSI .
Reply text: 7490

Could you now consider this next sequence?
Inquiry: If you can, please state the reported Kd value of SIKRNYPYLF .
Reply text: 758
